- subject of test: EGFR (form used in the assay not stated) (human, UniProt P00533 25-645, limits assumed)
- measurement description: ELISA, NEM conjugate, 10 nM
measured attribute: binding relative to P54AR4-83v2 parent (ratio)
Could you give me the number in ratio? Just the number is fine.

[[record]]
binder = "P54AR4-83v2 G85C, NEM conjugate (designed binder, not shown: small tags and cut ends, N-ethyl maleimide (NEM) on Cys 85) LPAPKNLVVSEVTEDSARLSWDDPWAFYESFLIQYQESEKVGEAIVLTVPGSERSYDLTGLKPGTEYTVSIYGVHNVYKDTNMRCLPLSAIFTT"
unit_annotation = "ratio"
quantitative_result = 0.19


Next, consider the following binder.
Input line: Entry P54AR4-83v2 E53C, NEM conjugate (designed binder, not shown: small tags and cut ends, N-ethyl maleimide (NEM) on Cys 53) LPAPKNLVVSEVTEDSARLSWDDPWAFYESFLIQYQESEKVGEAIVLTVPGSCRSYDLTGLKPGTEYTVSIYGVHNVYKDTNMRGLPLSAIFTT needs its binding relative to P54AR4-83v2 parent filled in; supply it.
Output line: 0.91
